Tested on: HepG2
Assay: Cytotoxicity against human HepG2 cells after 1 to 4 hrs by MTS assay
Assay type: cell-based
pIC50: −log10 of the molar value.
Assign fulfilled to entries whose pIC50 meets or exceeds 5; assign not fulfilled to the rest.

[[record]]
compound = "CC[C@H]1OC(=O)[C@H](C)[C@@H](O[C@H]2C[C@@](C)(OC)[C@@H](O)[C@H](C)O2)[C@H](C)[C@@H](O[C@@H]2O[C@H](C)C[C@H](N(C)C)[C@H]2O)[C@](C)(O)C[C@@H](C)CN(CCCNC(=O)Nc2ccc3ccccc3c2)[C@H](C)[C@@H](O)[C@]1(C)O"
cat = "not fulfilled"

[[record]]
compound = "CC[C@H]1OC(=O)[C@H](C)[C@@H](O[C@H]2C[C@@](C)(OC)[C@@H](O)[C@H](C)O2)[C@H](C)[C@@H](O[C@@H]2O[C@H](C)C[C@H](N(C)C)[C@H]2O)[C@](C)(O)C[C@@H](C)CN(CCCN(CCC#N)C(=O)NC(C)c2cccc3ccccc23)[C@H](C)[C@@H](O)[C@]1(C)O (some centres not stated)"
cat = "not fulfilled"

[[record]]
compound = "CC[C@H]1OC(=O)[C@H](C)[C@@H](O[C@H]2C[C@@](C)(OC)[C@@H](O)[C@H](C)O2)[C@H](C)[C@@H](O[C@@H]2O[C@H](C)C[C@H](N(C)C)[C@H]2O)[C@](C)(O)C[C@@H](C)CN(CCN(CCC#N)C(=S)NCCc2ccccc2)[C@H](C)[C@@H](O)[C@]1(C)O"
cat = "fulfilled"

[[record]]
compound = "CC[C@H]1OC(=O)[C@H](C)[C@@H](O[C@H]2C[C@@](C)(OC)[C@@H](O)[C@H](C)O2)[C@H](C)[C@@H](O[C@@H]2O[C@H](C)C[C@H](N(C)C)[C@H]2O)[C@](C)(O)C[C@@H](C)CN(CCNC(=S)Nc2cccc3ccccc23)[C@H](C)[C@@H](O)[C@]1(C)O"
cat = "not fulfilled"

[[record]]
compound = "CC[C@H]1OC(=O)[C@H](C)[C@@H](O[C@H]2C[C@@](C)(OC)[C@@H](O)[C@H](C)O2)[C@H](C)[C@@H](O[C@@H]2O[C@H](C)C[C@H](N(C)C)[C@H]2O)[C@](C)(O)C[C@@H](C)CN(CCCN(CCC#N)C(=O)Nc2ccc(Cl)cc2Cl)[C@H](C)[C@@H](O)[C@]1(C)O"
cat = "not fulfilled"

[[record]]
compound = "CC[C@H]1OC(=O)[C@H](C)[C@@H](O[C@H]2C[C@@](C)(OC)[C@@H](O)[C@H](C)O2)[C@H](C)[C@@H](O[C@@H]2O[C@H](C)C[C@H](N(C)C)[C@H]2O)[C@](C)(O)C[C@@H](C)CN(CCCNC(=S)NCCc2ccccc2)[C@H](C)[C@@H](O)[C@]1(C)O"
cat = "not fulfilled"

